In what follows, each item is paired with its IC50 for Polymerase acidic protein (Influenza A virus (A/Puerto Rico/8/1934(H1N1)), UniProt P03433).
I only need the number, in µM, no unit after it.

CCCOC(=O)[C@@H]1Cc2cc(O)c(O)cc2[C@H](Cc2ccc(O)c(O)c2)N1C(=O)c1ccccc1Cl 10.8

From here, focus on the item given below.
// map `O=C1c2c(O)c(=O)ccn2N([C@@H]2c3ccccc3SCc3c2ccc(F)c3F)[C@@H]2COCCN12` to recorded IC50 (system: Polymerase acidic protein (Influenza A virus (A/Puerto Rico/8/1934(H1N1)), UniProt P03433))
300
